Examples of molecules with documented Percent Effect follow.
# Test system: Wolbachia pipientis
# experiment: Anti-Wolbachia Cell-Based Screen
# Assay type: functional
# Design: scale not given: in the data most compounds retested in dose-response had high values
# measurement-parameters: 5 µM
The campaign covered roughly 48,000 compounds. About 13,000 (27%) showed an effect of 50% or more. This is one part of the list.
Field format: number, assumed %, no unit text.

Examples from the recorded data:
molecule=c1cncc(-c2ccc3c(c2)CCC32CCNCC2)c1 observed_value=-33.05
molecule=COc1ccc2c(c1)OC1(CCN(Cc3cccc(C)c3)CC1)CC2=O observed_value=101.2
molecule=COc1ccc2nc(C3CC3)cc(C(=O)NCCc3nnc[nH]3)c2c1 observed_value=-12.63

Next up:
For the record COc1ccc2c(c1)C(=O)CC1(CCN(Cc3ccc(F)cc3)CC1)O2 , what value of Percent Effect is listed for Wolbachia pipientis?
107.4

---

Quick reference for Percent Effect among some molecules
# Tested on: Wolbachia pipientis
# experiment: Anti-Wolbachia Cell-Based Screen
# Assay type: functional
# Set-up: scale not given: in the data most compounds retested in dose-response had high values
# measurement-parameters: 5 µM
The campaign covered roughly 48,000 compounds. About 13,000 (27%) showed an effect of 50% or more. The list shows a part of the results.
A number alone suffices; assume %.

molecule="Cn1ncnc1CNC1CCc2cc(Cl)ccc21 (stereo unspecified)" system_tested="Wolbachia pipientis" unit_abbrev=% observed_value=-6.658

Would you mind telling me what Percent Effect value was observed for COc1c(CNC2CCc3cc(C)ccc32)c(C)nn1C (stereo unspecified) ?
196.3

Would you kindly share the measured Percent Effect for COc1c(CNC2CCc3c(Cl)cccc32)c(C)nn1C.Cl (stereo unspecified) ?
-6.251

---

Recorded Percent Effect, one value per entry.
# System: Wolbachia pipientis
# experiment: Anti-Wolbachia Cell-Based Screen
# Format: functional
# Set-up: scale not given: in the data most compounds retested in dose-response had high values
# measurement-parameters: 5 µM
The whole screen tested about 48,000 compounds, of which about 13,000 (27%) showed an effect of 50% or more. This is one part of the list.
# output: bare number, implied unit %

In the examples that follow, each entry is paired with its recorded Percent Effect.
compound="Cn1ncc2c(=O)[nH]c(N3CCCC3c3cccc(Cl)c3)nc21 (stereo unspecified)" observed_value=-9.423
compound="O=C(Cn1nc(-c2ccc(F)cc2)oc1=O)NCC1CCCO1 (stereo unspecified)" observed_value=-3.643
compound=CC1CCN(S(=O)(=O)c2cccn(CC(=O)NC3CCCC3)c2=O)CC1 observed_value=-17.34
compound=CCn1nc(C)c2ccn(CC(=O)NC3CCCC3)c(=O)c21 observed_value=-1.508
compound="Cc1noc(C)c1CNC(=O)c1cn(CCC2CCCCN2)nn1 (stereo unspecified)" observed_value=-0.3777

Please turn your attention to the following entry.
Item Cc1nn(C)c2c(=O)n(CC(=O)NC3CCCCC3)ccc12 has what recorded Percent Effect?
138.3

---

Quick list: Percent Effect per entry.
# Test system: Wolbachia pipientis
# experiment: Anti-Wolbachia Cell-Based Screen
# Format: functional
# Set-up: scale not given: in the data most compounds retested in dose-response had high values
# measurement-parameters: 5 µM
Among all 48,000 compounds or so, about 13,000 (27%) showed an effect of 50% or more. The list shows a part of the results.
Respond with the bare value in %.

// below: answered molecules
molecule="CCC(C(=O)NCc1ccccn1)N(c1cccc(C)c1)S(C)(=O)=O (stereo unspecified)" unit_abbrev=% observed_value=1.713
molecule="COCCN1CCC2(CC1)CC(c1ccccc1)C(=O)N2C (stereo unspecified)" unit_abbrev=% observed_value=-11.58
molecule="CN1C(=O)C(c2ccccc2)CC12CCN(CCOCCO)CC2 (stereo unspecified)" unit_abbrev=% observed_value=13.34

Form field: Percent Effect recorded for Cc1ccc(-c2cn[nH]c2C2CCCN(c3cc(N)ncn3)C2)cc1 (stereo unspecified) with Wolbachia pipientis (enter value)
-31.64

Can you look up Percent Effect on Wolbachia pipientis for CC(C)n1ccnc1C1CCCN(c2ccccn2)C1 (stereo unspecified) ?
3.899

Param readout= Percent Effect; system= Wolbachia pipientis; entry= CN1C(=O)C(c2cccnc2)CC12CCN(C(=O)c1ccc[nH]1)CC2 (stereo unspecified) ; returns value.
-0.8841

---

# Tested on: Wolbachia pipientis
# experiment: Anti-Wolbachia Cell-Based Screen
# Type: functional
# Set-up: scale not given: in the data most compounds retested in dose-response had high values
# measurement-parameters: 5 µM
In all, about 48,000 compounds went through this assay and about 13,000 (27%) showed an effect of 50% or more. This is one part of the list.
parameter-measured: Percent Effect (%)
Give just the number in %; leave the unit off.

Recorded Percent Effect, per entry:
compound=Cc1cc(C)c2cc(CNC(C)C)c3nn(C)c(=O)n3c2c1 parameter_measured="Percent Effect" unit_abbrev=% observed_value=117
compound=CN(C)c1ncc(-c2ccc(NC(=O)[C@@H]3CCCCN3)cc2)cn1 parameter_measured="Percent Effect" unit_abbrev=% observed_value=109.4
compound=CN(C)C(=O)Cc1ccc(NC(=O)NC2CCCCC2)cc1 parameter_measured="Percent Effect" unit_abbrev=% observed_value=10.45

# lookup: Percent Effect of Nc1nccc(N2C[C@@H](CN3CCCCC3)[C@@H](CO)C2)n1
106.5

Fill in: Percent Effect of CCNC(=O)N1CCC(NC(=O)NCCc2cccc(C)c2)C1 (stereo unspecified) is ___
-4.75

Given the entry CSc1nccc(N2C[C@@H](CN3CCCCC3)[C@@H](CO)C2)n1 , report its measured Percent Effect.
104.9

Please look up its Percent Effect: Cc1nc(N2C[C@@H](CN3CCCCC3)[C@@H](CO)C2)c2sccc2n1
8.907

Look up Percent Effect: CC(NCC1CCN(CCO)CC1)c1cccc(Cl)c1 (stereo unspecified)
-3.921

Consider the compound Cc1nccc(N2C[C@@H](CN3CCCC3)[C@@H](CO)C2)n1 and give its measured Percent Effect.
109.4

Reported Percent Effect, compound OCC1(O)CCN(Cc2ccc(-c3cc[nH]n3)s2)CC1 : ____
-3.236

Given CCN1CCN(C[C@@H]2CN(c3ncccc3Cl)C[C@@H]2CO)CC1 , state its recorded Percent Effect.
-1.669

---

# System: Wolbachia pipientis
# experiment: Anti-Wolbachia Cell-Based Screen
# Assay type: functional
# Design: scale not given: in the data most compounds retested in dose-response had high values
# measurement-parameters: 5 µM
Screen size: about 48,000 compounds; about 13,000 (27%) showed an effect of 50% or more. This is one part of the list.
parameter-measured: Percent Effect (%)
Lab book: enter the figure in %, no units written.

Known results for compounds:
compound="Cc1ccccc1OCC1CCCN(C(=O)CN(C)C2CCNCC2)C1 (stereo not drawn)" parameter_measured="Percent Effect" observed_value=4.855
compound=O=C(O)[C@@H]1CCN(C(=O)c2ccccn2)[C@@H]1c1ccc(F)cc1 parameter_measured="Percent Effect" observed_value=129.5
compound="CN(C)C(=O)N1CCCC2(CCN(c3ccsc3)C2=O)C1 (stereo not drawn)" parameter_measured="Percent Effect" observed_value=-73.81
compound=O=C(COCC1CC1)N1CCN(C(=O)Cc2ccccn2)CC1 parameter_measured="Percent Effect" observed_value=1.286
compound="Cc1occc1C(=O)N1CCCC2(CCN(c3ccsc3)C2=O)C1 (stereo not drawn)" parameter_measured="Percent Effect" observed_value=-9.998
compound="CC(c1nc(C2CC2)no1)N(C)Cc1cccc(F)c1 (stereo not drawn)" parameter_measured="Percent Effect" observed_value=12.3

Which measured Percent Effect value corresponds to O=C(c1cscn1)N1CC[C@H]2[C@@H]1CCC(=O)N2c1ccccc1 ?
5.214

Entry under review: O=C(O)C(F)(F)F.O=C([C@H]1C[C@H]2OCC[C@H]2N(C(=O)c2ccccn2)C1)N1CCCCO1 . Reported Percent Effect?
-2.538

If you can, please state the reported Percent Effect value of Cc1ccccc1N1CCN(C(=O)c2cscn2)C(C)C1 (stereo not drawn) .
6.365

Which measured Percent Effect value corresponds to COc1cc(OC)c2c(=O)oc(CC(O)CC(C)=O)cc2c1 (stereo not drawn) ?
8.997

Sample Cc1cc(C)n(CC2CCCCN2C(=O)c2sccc2C#N)n1 (stereo not drawn) — what was its Percent Effect?
-7.705

Param item = O=C1N[C@@H]2CCN(C(=O)c3ccccc3)[C@@H]2C(=O)N1c1ccc(F)cc1 ; retrieve measured Percent Effect.
9.769

// lookup Percent Effect for O=C(O)[C@@H]1CCN(C(=O)c2cscn2)[C@@H]1c1ccc(F)cc1
132.5

Can you look up the measured Percent Effect of O=C1N(c2ccsc2)CCC12CCCN(c1ncc(F)cn1)C2 (stereo not drawn) for me?
91.96

---

# System: Wolbachia pipientis
# experiment: Anti-Wolbachia Cell-Based Screen
# Format: functional
# Design: scale not given: in the data most compounds retested in dose-response had high values
# measurement-parameters: 5 µM
The campaign covered roughly 48,000 compounds. About 13,000 (27%) showed an effect of 50% or more. This is one part of the list.
parameter-measured: Percent Effect (%)
Field: numeric (%). Do not append units.

// known answers, use as guide
compound=CCS(=O)(=O)c1ccccc1C(=O)NCc1ccnc(N(C)C)c1 system_tested="Wolbachia pipientis" parameter_measured="Percent Effect" unit_abbrev=% observed_value=-0.6479
compound=CN(C)c1cc(CNC(=O)c2ccc(O)nc2)ccn1 system_tested="Wolbachia pipientis" parameter_measured="Percent Effect" unit_abbrev=% observed_value=121.2
compound="CNC(=O)C(C)CN(C)C(=O)Nc1cc(-n2cccc2)ccc1F (configuration not stated)" system_tested="Wolbachia pipientis" parameter_measured="Percent Effect" unit_abbrev=% observed_value=4.281
compound=CN(C)c1cc(CNC(=O)c2n[nH]c(=O)c3ccccc23)ccn1 system_tested="Wolbachia pipientis" parameter_measured="Percent Effect" unit_abbrev=% observed_value=128.9
compound="CC(c1ccccc1Cl)N(C(=O)CSCC(N)=O)C1CC1 (configuration not stated)" system_tested="Wolbachia pipientis" parameter_measured="Percent Effect" unit_abbrev=% observed_value=-12.69
compound="COc1ccccc1N1CCC(N2CCOCC(CO)C2)CC1 (configuration not stated)" system_tested="Wolbachia pipientis" parameter_measured="Percent Effect" unit_abbrev=% observed_value=9.24

Suppose we examine the compound Cc1nnc(NCCc2nc3ccc(F)cc3n2C)c(C#N)c1C ; what Percent Effect value has been reported?
-11.69

Where do these numbers come from? They come from ChEMBL document CHEMBL3988442.
